- protocol_text: Steady state PK in rat CIA model
- Assay type: in vivo
- setup_conditions: plasma, PO 3 mg/kg/day

smiles_data: O=C(Nc1nc2cccc(-c3ccc(CN4CCS(=O)(=O)CC4)cc3)n2n1)C1CC1
Cmax / ng/mL: 363

* * *

- protocol_text: Aqueous solubility
- Assay type: physicochemical
- setup_conditions: 0.2 M phosphate buffer pH 7.4, 37 °C, pH 7.4, aqueous buffer, kinetic from dmso stock; 0.2M phosphate buffer pH7.4; read-out: Aqueous solubility pH 7.4

compound: O=C(Nc1nc2cccc(-c3ccc(CN4CCS(=O)(=O)CC4)cc3)n2n1)C1CC1 [Compound 1]
solubility at 1 h: > 85 µg/mL
//
compound: O=C(Nc1nc2cccc(-c3ccc(C(=O)N4CCS(=O)(=O)CC4)cc3)n2n1)C1CC1 [Compound 10]
solubility at 1 h: > 87.9 µg/mL
//
compound: O=C(Nc1nc2cccc(-c3ccc(CN4CCOCC4)cc3)n2n1)C1CC1 [Compound 2]
solubility at 1 h: > 38 µg/mL
